# maps each entry to its melting point

Reference set, count: 6
molecule	recorded_metric	result
O=Cc1cccc2ccc(-c3ccccc3)nc12	melting point	100 to 102 °C
FC(F)(F)c1cccc(CCc2nnc(-c3ccc4ncoc4c3)o2)c1	melting point	117 to 118 °C
O=C(CCl)Nc1ccc2[nH]c(=O)c3ccccc3c2c1	melting point	300 to 303 °C
CC(C)(C)OC(=O)NC(C(=O)O)C1(O)CCOCC1 (stereo unspecified)	melting point	140 to 141 °C
CSc1snc(OCC#CI)c1C#N	melting point	145 to 146 °C
CC1(C2OCCO2)C=CC(C#N)=CC1 (stereo unspecified)	melting point	70 °C

What value of melting point has been reported for the following molecule? "CCOC(=O)CC[C@H](NC(=O)c1cc(CCCc2cc3c(=O)[nH]c(N)nc3[nH]2)cs1)C(=O)OCC"
81 to 82 °C

What value of melting point has been reported for the following molecule? "O=CNc1nc(SCc2ccccc2)nn1-c1ccccc1"
94 °C

What value of melting point has been reported for the following molecule? "CCCc1c(OCc2cccc(C(=O)OCC)c2OCC)ccc(C(C)=O)c1O"
59 to 62 °C

What value of melting point has been reported for the following molecule? "O=c1c(Cl)c(Cl)cnn1-c1cc(-c2ccnc(Nc3cccc(Cl)c3)n2)ccn1"
238 to 240 °C

What value of melting point has been reported for the following molecule? "CC[C@@]12C[C@@](C)(O)[C@](O)(c3ccccc3)C[C@H]1CCc1cc(OCC(C)(C)O)ccc12"
190 to 193 °C

What value of melting point has been reported for the following molecule? "CC(C)S(=O)(=O)O[C@H]1C[C@@H](C(=O)O)N(C(=O)c2ccccc2Br)C1"
139 to 140 °C

What value of melting point has been reported for the following molecule? "Cc1ccc(C(=O)Cn2cc(Cl)cnc2=O)c(C)c1"
221 to 222 °C

What value of melting point has been reported for the following molecule? O=C(N[C@H](Cc1ccc(C(F)(F)F)cc1)[C@@H](O)c1ccc(F)cc1)c1ccc2c(c1)OCO2 (racemic)
180 to 181 °C

What value of melting point has been reported for the following molecule? "NC(=O)c1cscc1Br"
108 to 110 °C

What value of melting point has been reported for the following molecule? Cn1cnnc1C(N)(c1ccc(Cl)cc1)c1ccc2c(c1)c(-c1cccc(Cl)c1)nc1nnnn12 (stereo unspecified)
220 °C

----------
# maps each entry to its melting point

Reference set, count: 3
compound	melting point
CCOC(=O)C(=Cc1cc(OC)c(OC)cc1OC)C(=O)OCC	86 to 87 °C
CCOC(=O)c1cnc2ccc3nc(Cl)sc3c2c1Cl	143 to 146 °C
O=c1cc(-c2ccc(O)c(Cl)c2)oc2ncccc12	259 to 262 °C

What value of melting point has been reported for the following compound? O=C(O)C1C(=O)Nc2ccccc2SC1c1ccc2c(c1)OCO2 (mixture of isomers)
110 °C

What value of melting point has been reported for the following compound? "CCn1c2ccc(C(=O)c3ccc(-n4c5ccccc5c5ccccc54)cc3)cc2c2cc(C(C)=NO)ccc21"
151 to 154 °C

What value of melting point has been reported for the following compound? "CCCC(=O)c1cnc2ccc(COC(=O)c3ccccc3)cc2c1Nc1ccccc1C"
142 to 144 °C

----------
# maps each entry to its melting point

Reference set, count: 3
compound	melting point
O=C(Cc1ccccc1)c1ccc(OC=C(F)F)cc1	81 to 85 °C
O=C(O)c1cc(Cl)cc2cc(-c3ccccc3)oc12	255 to 258 °C
Nc1nc2c(=O)c3cc(Cl)ccc3oc2cc1-c1nnn[nH]1	> 300 °C

What value of melting point has been reported for the following compound? O=C(O)CCCN1CCN2c3ccccc3Cc3ccccc3C2C1 (stereo not given)
104 to 105 °C

What value of melting point has been reported for the following compound? "COc1ccccc1NCN1C(=O)CSC1=O"
88.5 to 91 °C

What value of melting point has been reported for the following compound? "COc1ccc(C(=O)Nc2ccc3ccc(Oc4ccc(F)cc4)nc3n2)cc1"
100 °C

What value of melting point has been reported for the following compound? "O=C(O)c1cc2c([N+](=O)[O-])c(O)c(O)cc2oc1=O"
> 300 °C

What value of melting point has been reported for the following compound? OCC1CCC2=C(Cc3ccccc32)C1CN1CCCCC1CO (stereo not given)
151 to 159 °C

What value of melting point has been reported for the following compound? COc1ccccc1C1OC(=O)NC1=O (stereo not given)
175 to 177 °C

What value of melting point has been reported for the following compound? "O=C1Cc2cc(-c3ccccc3)ccc2N1"
214 to 215 °C
